Target: ROCK2 (IPI00307155) (Homo sapiens, UniProt O75116)
Construct: endogenous in cells
Sequence (O75116 whole entry): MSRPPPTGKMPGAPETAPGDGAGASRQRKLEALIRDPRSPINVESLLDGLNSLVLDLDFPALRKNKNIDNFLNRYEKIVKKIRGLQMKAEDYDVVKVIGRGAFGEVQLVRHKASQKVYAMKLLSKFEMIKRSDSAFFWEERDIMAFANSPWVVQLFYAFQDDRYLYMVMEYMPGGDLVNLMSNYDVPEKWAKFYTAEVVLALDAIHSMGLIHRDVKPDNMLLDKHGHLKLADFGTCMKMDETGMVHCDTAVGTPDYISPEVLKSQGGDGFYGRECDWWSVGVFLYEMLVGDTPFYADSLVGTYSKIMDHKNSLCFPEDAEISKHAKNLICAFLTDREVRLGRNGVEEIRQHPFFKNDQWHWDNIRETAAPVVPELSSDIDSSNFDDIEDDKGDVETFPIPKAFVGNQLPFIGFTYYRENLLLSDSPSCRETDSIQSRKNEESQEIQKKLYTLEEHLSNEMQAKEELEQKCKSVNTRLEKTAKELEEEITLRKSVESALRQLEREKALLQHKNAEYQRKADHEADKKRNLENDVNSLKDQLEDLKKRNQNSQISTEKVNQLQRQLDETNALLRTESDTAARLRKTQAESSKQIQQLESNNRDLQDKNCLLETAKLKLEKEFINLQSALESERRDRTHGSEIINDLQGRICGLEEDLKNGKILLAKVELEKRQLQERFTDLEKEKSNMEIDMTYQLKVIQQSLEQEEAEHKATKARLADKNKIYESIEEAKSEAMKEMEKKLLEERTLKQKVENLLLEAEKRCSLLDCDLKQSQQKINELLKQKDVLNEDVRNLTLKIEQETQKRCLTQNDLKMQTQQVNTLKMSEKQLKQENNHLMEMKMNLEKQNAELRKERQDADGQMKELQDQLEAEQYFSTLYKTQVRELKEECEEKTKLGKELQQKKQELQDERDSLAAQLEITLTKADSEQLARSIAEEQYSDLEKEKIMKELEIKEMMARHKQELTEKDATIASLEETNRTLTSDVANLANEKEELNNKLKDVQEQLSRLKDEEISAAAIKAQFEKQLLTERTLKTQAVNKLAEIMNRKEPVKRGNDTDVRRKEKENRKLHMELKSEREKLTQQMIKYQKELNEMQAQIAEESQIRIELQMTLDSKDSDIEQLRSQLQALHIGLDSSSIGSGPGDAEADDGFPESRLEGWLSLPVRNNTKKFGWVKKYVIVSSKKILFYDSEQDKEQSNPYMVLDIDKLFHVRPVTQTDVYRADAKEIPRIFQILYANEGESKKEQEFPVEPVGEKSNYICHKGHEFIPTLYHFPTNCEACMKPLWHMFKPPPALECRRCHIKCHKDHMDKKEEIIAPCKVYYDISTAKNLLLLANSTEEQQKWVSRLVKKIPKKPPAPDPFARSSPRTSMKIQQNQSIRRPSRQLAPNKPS
Assay: binding to VI16742 beads (HeLa lysate, SILAC MS)
Details: immobilized VI16742
parameter-measured: Ki (µM)
Value expressed in µM; do not type the unit.

Measured on ROCK2 (IPI00307155) (Homo sapiens, UniProt O75116), `CC(C)n1c(=O)ccc2cnc(Nc3ccc(OCCN)cc3)nc21` has a documented Ki of 255
